experiment: qHTS of pediatric cancer cell lines to identify multiple opportunities for drug repurposing: Primary screen for SK-N-MC cells (AID 1347093); details: SK-N-MC viability, CellTiter-Glo luminescence, 48 h; series mostly up to 46 µM; also: potency is read from the fitted curve at half-maximal effect
Results filed as inconclusive are left out. Calls of active or inactive are those of the source. Calls follow the shape of the dose curve; as a rule, active = well fitted cell-killing curve with a large enough effect; inconclusive = small, poorly fitted or top-dose-only effect; inactive = no such curve, though single readings can be large or run the other way.
Endpoint label: Potency

Use these answered entries as a reference point.
Compound | Reported result
Cc1ncc([N+](=O)[O-])n1CC(C)O (stereo unspecified) | inactive
COc1ccc2cc([C@H](C)C(=O)O)ccc2c1 | inactive
Cc1cccc(C)c1OCC(=O)N[C@@H](Cc1ccccc1)[C@@H](O)C[C@H](Cc1ccccc1)NC(=O)[C@H](C(C)C)N1CCCNC1=O | 29.6 µM (active)
CCC[C@@H]1C[C@@H](C(=O)N[C@@H]([C@H]2O[C@H](SC)[C@H](O)[C@@H](O)[C@H]2O)[C@@H](C)O)N(C)C1 | inactive
CCCOc1ccc2nc(NC(=O)OC)[nH]c2c1 | 0.0422 µM (active)
COCCCOc1ccnc(CS(=O)c2nc3ccccc3[nH]2)c1C (stereo unspecified) | inactive

Returns the measured Potency for the input compound. Input: COC(=O)C1=C(C)NC(C)=C(C(=O)OC(C)C)C1c1cccc2nonc12 (stereo unspecified)
2.64 µM (active)

---

assay: qHTS drug screen for cell cycle checkpoint inhibitors in PARPi-resistant BRCA-mutant ovarian cancer cell lines. (AID 1963452); conditions: PEO1/OlaR viability, CellTiter-Glo luminescence, 96 h; measured here: PEO4 Z-AUC; stronger effect = lower value
Task for the reader: assign each of the following molecules its reported Z-AUC.

Returns the measured Z-AUC for the input molecule. Input: O=c1c(O)c(-c2ccc(O)cc2O)oc2cc(O)cc(O)c12
1.21

Returns the measured Z-AUC for the input molecule. Input: COCCCOc1ccnc(CS(=O)c2nc3ccccc3[nH]2)c1C (stereo not drawn)
-0.176

Returns the measured Z-AUC for the input molecule. Input: Clc1ccc(C(Cn2ccnc2)OCc2c(Cl)cccc2Cl)c(Cl)c1 (stereo not drawn)
0.49

Returns the measured Z-AUC for the input molecule. Input: Cc1cccc(CN2CCN(C(c3ccccc3)c3ccc(Cl)cc3)CC2)c1 (stereo not drawn)
-1

Returns the measured Z-AUC for the input molecule. Input: CN1CCC(=C2c3ccccc3CCc3sccc32)CC1
-0.893

Returns the measured Z-AUC for the input molecule. Input: CCN(CC)CCOc1ccc(Cc2ccccc2)cc1
0.289

Returns the measured Z-AUC for the input molecule. Input: Cc1nc(-c2ccc(OCC(C)C)c(C#N)c2)sc1C(=O)O
0.327

Returns the measured Z-AUC for the input molecule. Input: CC(C)(S)[C@@H](N)C(=O)O
1.3

---

experiment: qHTS profiling of the MIPE4 collection as inhibitors of Plasmodium falciparum (3D7) proliferation (AID 743344);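 also: scaled between DMSO vehicle wells and 0.29 µM artemisinin as full inhibition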; details: P. falciparum 3D7 in erythrocytes, SYBR Green DNA fluorescence, 72 h; at 28.5 µM (top of the series) unless noted
Endpoint label: parasite growth, % of DMSO control
I'd appreciate it if you wrote the number followed by its unit.

Returns the measured parasite growth, % of DMSO control for the input molecule. Input: C[C@@H](N)C1CCC(C(=O)Nc2ccncc2)CC1 (stereo partly drawn)
85.6%

Returns the measured parasite growth, % of DMSO control for the input molecule. Input: CCCOc1ccc2nc(NC(=O)OC)[nH]c2c1
82.7%

Returns the measured parasite growth, % of DMSO control for the input molecule. Input: COc1ccc2cc([C@H](C)C(=O)O)ccc2c1
106%

Returns the measured parasite growth, % of DMSO control for the input molecule. Input: N=C(N)c1ccc2cc(OC(=O)c3ccc(N=C(N)N)cc3)ccc2c1
6.93%

Returns the measured parasite growth, % of DMSO control for the input molecule. Input: CC(C)c1ccc2oc3nc(N)c(C(=O)O)cc3c(=O)c2c1
54.7%

Returns the measured parasite growth, % of DMSO control for the input molecule. Input: CNC[C@@H](O)[C@@H](O)[C@H](O)[C@H](O)CO
65.8%

Returns the measured parasite growth, % of DMSO control for the input molecule. Input: O=c1c(O)c(-c2ccc(O)cc2O)oc2cc(O)cc(O)c12
80.8%

Returns the measured parasite growth, % of DMSO control for the input molecule. Input: CC1=C(C)C(=O)C(C(CCCCCC(=O)O)c2ccccc2)=C(C)C1=O (stereo not drawn)
50.6%

---

system: PC26; assay: qHTS profiling for inhibitors of Plasmodium falciparum proliferation (AID 504749); also: nearly all actives have a fitted effect of over 60% in size; conditions: P. falciparum in erythrocytes, SYBR Green DNA, 72 h; series mostly up to 28.7 µM
Results filed as inconclusive are left out. Activity calls are given as the source filed them. The call rests on the fitted dose curve; in most records, active means well fitted inhibition curve with a large enough effect; inconclusive means small, poorly fitted or top-dose-only effect; inactive means flat fitted curve, though single readings scatter.
Answer with one of the outcomes given here: active, inactive

What did this assay record as the result for CCOc1cc(CC(=O)N[C@@H](CC(C)C)c2ccccc2N2CCCCC2)ccc1C(=O)O ?
inactive

What did this assay record as the result for C[C@H](Cn1cnc2c(N)ncnc21)OCP(=O)(O)O ?
inactive

What did this assay record as the result for COc1cc(OC)c(C(=O)CCCN2CCCC2)c(OC)c1 ?
inactive

What did this assay record as the result for Nc1cccc2c1CN(C1CCC(=O)NC1=O)C2=O (centres undefined) ?
inactive

What did this assay record as the result for O=C(NC(Cc1cc(=O)[nH]c2ccccc12)C(=O)O)c1ccc(Cl)cc1 (centres undefined) ?
inactive

What did this assay record as the result for CC(C)c1ccc2oc3nc(N)c(C(=O)O)cc3c(=O)c2c1 ?
inactive

What did this assay record as the result for CN1C(C(=O)Nc2ccccn2)=C(O)c2sccc2S1(=O)=O ?
inactive

What did this assay record as the result for CCCCN(CCCC)CCC(O)c1cc2c(Cl)cc(Cl)cc2c2cc(C(F)(F)F)ccc12 (centres undefined) ?
active

What did this assay record as the result for O=C(O)CCNC(=O)c1ccc(N=Nc2ccc(O)c(C(=O)O)c2)cc1 ?
inactive

What did this assay record as the result for Cc1cccc(C)c1OCC(=O)N[C@@H](Cc1ccccc1)[C@@H](O)C[C@H](Cc1ccccc1)NC(=O)[C@H](C(C)C)N1CCCNC1=O ?
active

What did this assay record as the result for O=C1CCc2ccc(OCCCCN3CCN(c4cccc(Cl)c4Cl)CC3)cc2N1 ?
inactive

What did this assay record as the result for CC(S)C(=O)NCC(=O)O (centres undefined) ?
inactive

What did this assay record as the result for CN(C)C(=O)COC(=O)Cc1ccc(OC(=O)c2ccc(N=C(N)N)cc2)cc1 ?
inactive

What did this assay record as the result for CCCCCCCCCCCCCCCCCCCCCCO ?
inactive

What did this assay record as the result for CCCCc1ccc2nc(NC(=O)OC)[nH]c2c1 ?
inactive

What did this assay record as the result for CC(C)[C@H](N)C(=O)OCCOCn1cnc2c(=O)[nH]c(N)nc21 ?
inactive

What did this assay record as the result for COc1ccc2cc([C@H](C)C(=O)O)ccc2c1 ?
inactive

What did this assay record as the result for CCCc1cc(=O)[nH]c(=S)[nH]1 ?
inactive

What did this assay record as the result for Cc1ccc(C)c(OCCCC(C)(C)C(=O)O)c1 ?
inactive

What did this assay record as the result for O=C(O)c1cn(-c2ccc(F)cc2)c2cc(N3CCNCC3)c(F)cc2c1=O ?
inactive

What did this assay record as the result for Cc1c(C(=O)NN2CCCCC2)nn(-c2ccc(Cl)cc2Cl)c1-c1ccc(Cl)cc1 ?
active

What did this assay record as the result for CCC(C)(Oc1ccc(C2(c3ccc(OC(C)(CC)C(=O)O)cc3)CCCCC2)cc1)C(=O)O (centres undefined) ?
inactive

What did this assay record as the result for O=C(O)c1cccc(-c2noc(-c3ccccc3F)n2)c1 ?
inactive

What did this assay record as the result for Oc1ccc(OCc2ccccc2)cc1 ?
inactive

What did this assay record as the result for Nc1cc(C(Cl)=C(Cl)Cl)c(S(N)(=O)=O)cc1S(N)(=O)=O ?
inactive

What did this assay record as the result for COCCCOc1ccnc(CS(=O)c2nc3ccccc3[nH]2)c1C (centres undefined) ?
active

What did this assay record as the result for C[Se]CCC(N)C(=O)O (centres undefined) ?
inactive

What did this assay record as the result for COc1ccc(C2(C#N)CCC(C(=O)O)CC2)cc1OC1CCCC1 (centres undefined) ?
inactive

What did this assay record as the result for C=C(c1ccc(C(=O)O)cc1)c1cc2c(cc1C)C(C)(C)CCC2(C)C ?
inactive

---

Test: Quantitative High-Throughput drug screen in 47 multiple myeloma cell lines against the NCATS MIPE library collection: H1112_PLB cell viability assay (AID 1918967; also: nearly all actives have a fitted effect of over 30% in size)
Details: H1112 myeloma cells viability, ATP luminescence, 48 h; series mostly up to 45.8 µM
Excerpt: PI: Beverly A. Mock Ph.D. Laboratory of Cancer Biology and Genetics, Center for Cancer Research, National Cancer Institute, National Institute of Health, Bethesda, Maryland […] 5; Detector; 425V; Luminescence; Viewlux PerkinElmer. […] 1. […] Briefly, the corresponding myeloma cell lines were screened in 1,536-well plates with 500 cells, 5-uL per well for inhibition of cell viability (assessed by measuring ATP levels with CellTiterGlo). […]
Results filed as inconclusive are left out. The source made the active and inactive calls. Calls come from the whole dose curve; as a rule, active = well fitted cell-killing curve with a large enough effect; inconclusive = small, poorly fitted or top-dose-only effect, or effect the other way; inactive = no such curve, though single readings can be large or run the other way.
Answer with one of the outcomes given here: true (1) for active, false (0) for inactive

What did this assay record as the result for COc1c2occc2cc2ccc(=O)oc12 ?
false (0)

What did this assay record as the result for CC(=O)N1CCN(c2ccc(OC[C@H]3CO[C@](Cn4ccnc4)(c4ccc(Cl)cc4Cl)O3)cc2)CC1 ?
true (1)

What did this assay record as the result for COc1cc2c(cc1OC)C1CC(=O)C(CC(C)C)CN1CC2 (configuration not stated) ?
false (0)

What did this assay record as the result for COC(=O)C1=C(C)NC(C)=C(C(=O)OCCCN2CCC(c3ccccc3)(c3ccccc3)CC2)C1c1cccc([N+](=O)[O-])c1 (configuration not stated) ?
false (0)

What did this assay record as the result for CCN(CCO)CCCC(C)Nc1ccnc2cc(Cl)ccc12 (configuration not stated) ?
false (0)

What did this assay record as the result for CC(=O)NC[C@H]1CN(c2ccc(N3CCOCC3)c(F)c2)C(=O)O1 ?
false (0)

What did this assay record as the result for O=C(NCC1CCCCN1)c1cc(OCC(F)(F)F)ccc1OCC(F)(F)F (configuration not stated) ?
true (1)

What did this assay record as the result for CCN(CC)CCOc1ccc(Cc2ccccc2)cc1 ?
false (0)

What did this assay record as the result for CCN(CC)CCOc1ccc(Nc2ncc3cc(-c4c(Cl)cccc4Cl)c(=O)n(C)c3n2)cc1 ?
true (1)

What did this assay record as the result for COc1cc(Nc2c(C#N)cnc3cc(OCCCN4CCN(C)CC4)c(OC)cc23)c(Cl)cc1Cl ?
true (1)

What did this assay record as the result for CC(C)c1ccc2oc3nc(N)c(C(=O)O)cc3c(=O)c2c1 ?
false (0)

What did this assay record as the result for Clc1ccc2c(N3CCN(CCCN4CCN(c5ccnc6cc(Cl)ccc56)CC4)CC3)ccnc2c1 ?
false (0)

What did this assay record as the result for CCCCC(CC)COC(=O)C(C#N)=C(c1ccccc1)c1ccccc1 (configuration not stated) ?
false (0)

What did this assay record as the result for CC(C)C[C@H](NC(=O)[C@H](Cc1ccccc1)NC(=O)c1cnccn1)B(O)O ?
true (1)

What did this assay record as the result for CCOC(=O)c1c(C)n(C)c2ccc(O)cc12 ?
false (0)

What did this assay record as the result for O=C(O)c1cccc(-c2noc(-c3ccccc3F)n2)c1 ?
false (0)

What did this assay record as the result for Cc1cccc(C)c1OCC(=O)N[C@@H](Cc1ccccc1)[C@@H](O)C[C@H](Cc1ccccc1)NC(=O)[C@H](C(C)C)N1CCCNC1=O ?
true (1)

What did this assay record as the result for Cc1cccc(CN2CCN(C(c3ccccc3)c3ccc(Cl)cc3)CC2)c1 (configuration not stated) ?
true (1)

What did this assay record as the result for COC(=O)C1=C(C)NC(C)=C(C(=O)OC(C)C)C1c1cccc2nonc12 (configuration not stated) ?
true (1)

What did this assay record as the result for NS(=O)(=O)c1cc(C(=O)O)c(NCc2ccco2)cc1Cl ?
false (0)

What did this assay record as the result for COc1cc2nc(N3CCN(C(=O)C4CCCO4)CC3)nc(N)c2cc1OC (configuration not stated) ?
false (0)

What did this assay record as the result for O=C(O)c1cccnc1Nc1cccc(C(F)(F)F)c1 ?
false (0)
